Tested on: Human immunodeficiency virus
Assay: Inhibition of HIV reverse transcriptase assessed as incorporation of [3H]dTMP at 100 uM
Parameter: inhibition. Scope: all listed entries.
Express your answer in %, writing the number without its unit.

Field: example entries. Status: answers known.
O=C(O[C@@H]1C[C@](O)(C(=O)O)C[C@@H](OC(=O)c2cc(O)c(O)c(O)c2)[C@H]1OC(=O)c1cc(O)c(O)c(O)c1)c1cc(O)c(O)c(O)c1; 58
O=C(Oc1c(O)cc(C(=O)O[C@@H]2C[C@@](O)(C(=O)O)C[C@@H](OC(=O)c3cc(O)c(O)c(O)c3)[C@@H]2OC(=O)c2cc(O)c(O)c(O)c2)cc1O)c1cc(O)c(O)c(O)c1; 89
O=C(Oc1c(O)cc(C(=O)O[C@H]2[C@H](OC(=O)c3cc(O)c(O)c(O)c3)C[C@](O)(C(=O)O)C[C@H]2OC(=O)c2cc(O)c(O)c(O)c2)cc1O)c1cc(O)c(O)c(O)c1; 90
O=C(Oc1c(O)cc(C(=O)O[C@@H]2C[C@](O)(C(=O)O)C[C@@H](OC(=O)c3cc(O)c(O)c(O)c3)[C@H]2OC(=O)c2cc(O)c(O)c(O)c2)cc1O)c1cc(O)c(O)c(O)c1; 84

Per the record, `O=C(O[C@@H]1C[C@](OC(=O)c2cc(O)c(O)c(O)c2)(C(=O)O)C[C@@H](OC(=O)c2cc(O)c(O)c(O)c2)[C@H]1OC(=O)c1cc(O)c(O)c(O)c1)c1cc(O)c(O)c(O)c1` has inhibition of 94
